Ref: patent US4898858A

# Test system: Proteus rettgeri GN-624
measurement.kind: MIC (µg/mL)
The reply should contain only the number, in µg/mL.

Take a look at these entries with their results.
>  <compound>
CC(O/N=C(\C(=O)N[C@@H]1C(=O)N2C(C(=O)[O-])=C(CSc3cc[n+](CCF)cc3)CS[C@H]12)c1csc(N)n1)C(=O)O (stereo partly drawn)

>  <MIC / µg/mL>
0.05

$$$$
>  <compound>
Nc1nc(/C(=N/OC(C(=O)O)C2CCCCC2)C(=O)N[C@@H]2C(=O)N3C(C(=O)[O-])=C(CSc4cc[n+](CCF)cc4)CS[C@H]23)cs1 (stereo partly drawn)

>  <MIC / µg/mL>
0.39

$$$$

Now examine the next entry.
Report MIC for CCC(O/N=C(\C(=O)N[C@@H]1C(=O)N2C(C(=O)[O-])=C(CSc3cc[n+](CCF)cc3)CS[C@H]12)c1csc(N)n1)C(=O)O (stereo partly drawn) please.
0.05
